Give recombinant UMI read abundance (log10) for every item shown.
test: recombinant UMI read abundance after kanamycin selection (control-corrected) (log10(CPM+1)); higher = more efficient recombination; extreme values may be limits of the assay; sequences stand for … in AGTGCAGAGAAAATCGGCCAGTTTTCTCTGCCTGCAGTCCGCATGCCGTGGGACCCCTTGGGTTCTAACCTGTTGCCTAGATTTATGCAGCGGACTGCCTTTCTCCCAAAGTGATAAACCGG…AGGTTGGTTTCACT; site = the 11-nt donor;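 also: IS621 bridge recombinase in Escherichia coli cells against a fixed T5 target plasmid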

For the sequence shown here, CGGAATGCATGGACCGGTTTTCCCGGTAATCCGTATTTGTT (site CGGAATACTAA) , give the reported recombinant UMI read abundance (log10).
2

For the sequence shown here, GGCGACCCATGGACCGGTTTTCCCGGTAATCCGTATTTGTT (site GGCCACCCTAA) , give the reported recombinant UMI read abundance (log10).
0.0153

For the sequence shown here, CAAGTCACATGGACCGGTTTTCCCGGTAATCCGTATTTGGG (site CAAGTCACTTC) , give the reported recombinant UMI read abundance (log10).
0.00273

For the sequence shown here, TACGTCACATGGACCGGTTTTCCCGGTAATCCGTATTTGGG (site TACGTCACTCC) , give the reported recombinant UMI read abundance (log10).
0.0239

For the sequence shown here, CCCGTATCATGGACCGGTTTTCCCGGTAATCCGTATTTGTC (site CCCTTATCTGA) , give the reported recombinant UMI read abundance (log10).
0

For the sequence shown here, CGGAAACCATGGACCGGTTTTCCCGGTAATCCGTATTTGAT (site CGGGAACCTAT) , give the reported recombinant UMI read abundance (log10).
0

For the sequence shown here, CTACTATCATGGACCGGTTTTCCCGGTAATCCGTATTTGAA (site CTAGTATCTGT) , give the reported recombinant UMI read abundance (log10).
0

For the sequence shown here, CAATGCTCATGGACCGGTTTTCCCGGTAATCCGTATTTGGA (site CAATGCTCTTC) , give the reported recombinant UMI read abundance (log10).
2.46

For the sequence shown here, CGCCGTACATGGACCGGTTTTCCCGGTAATCCGTATTTGCA (site CGCCGTACTTG) , give the reported recombinant UMI read abundance (log10).
2.07

For the sequence shown here, CAAGCGCCATGGACCGGTTTTCCCGGTAATCCGTATTTGCG (site CAAGCGCCTCA) , give the reported recombinant UMI read abundance (log10).
0.0343

For the sequence shown here, ACTTGAACATGGACCGGTTTTCCCGGTAATCCGTATTTGAG (site ACTCGAACTCT) , give the reported recombinant UMI read abundance (log10).
0.999

For the sequence shown here, TCCAGTTCATGGACCGGTTTTCCCGGTAATCCGTATTTGCC (site TCCAGTTCTGG) , give the reported recombinant UMI read abundance (log10).
0

For the sequence shown here, CTCCCGACATGGACCGGTTTTCCCGGTAATCCGTATTTGAG (site CTCCCTACTCT) , give the reported recombinant UMI read abundance (log10).
0.0167

For the sequence shown here, CACGGCCCATGGACCGGTTTTCCCGGTAATCCGTATTTGCT (site CACGGCCCTAG) , give the reported recombinant UMI read abundance (log10).
1.12

For the sequence shown here, ATCGCGTCATGGACCGGTTTTCCCGGTAATCCGTATTTGAA (site ATCGCGTCTTT) , give the reported recombinant UMI read abundance (log10).
2.01

For the sequence shown here, AACCCTCCATGGACCGGTTTTCCCGGTAATCCGTATTTGAT (site AACCTTCCTAT) , give the reported recombinant UMI read abundance (log10).
0.011

For the sequence shown here, CTCTCCACATGGACCGGTTTTCCCGGTAATCCGTATTTGCT (site CTCTACACTAG) , give the reported recombinant UMI read abundance (log10).
0.902

For the sequence shown here, GACAGACCATGGACCGGTTTTCCCGGTAATCCGTATTTGGT (site GACATACCTAC) , give the reported recombinant UMI read abundance (log10).
0
